Each recorded value in this set is attributed to patent US20110177071A1.

Measured pKd, listed per entry.
- assayedTarget: T1, human CD86-murine Ig fusion protein (human)
- T1 construct: Bought (Ancell #509-820); also called hCD86-mIg
- T1 chain: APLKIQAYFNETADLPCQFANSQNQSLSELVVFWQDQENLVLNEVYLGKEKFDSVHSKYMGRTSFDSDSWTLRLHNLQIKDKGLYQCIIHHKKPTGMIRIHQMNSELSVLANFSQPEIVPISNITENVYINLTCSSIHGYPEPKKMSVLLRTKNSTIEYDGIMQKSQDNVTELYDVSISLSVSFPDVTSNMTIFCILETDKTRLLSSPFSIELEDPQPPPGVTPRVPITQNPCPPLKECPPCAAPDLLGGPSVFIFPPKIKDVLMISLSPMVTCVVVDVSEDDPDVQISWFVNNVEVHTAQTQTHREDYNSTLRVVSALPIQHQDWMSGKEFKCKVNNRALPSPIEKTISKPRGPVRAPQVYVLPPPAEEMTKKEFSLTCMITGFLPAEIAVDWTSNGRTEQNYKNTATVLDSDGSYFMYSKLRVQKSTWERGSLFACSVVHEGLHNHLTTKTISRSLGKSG
- procedureText: SPR Biacore, hCD86-mIg captured
pKd: −log10 of the molar value.

1) D3-26-IgG2 (Fc fusion) MHVAQPAVVLASSRGIASFVCEYASPGKANEIRVTVLRQADSQVTEVCAMTYMKGNELTFLDDPSCTGTFSGNQVNLTIQGLRAMDTGLYICKVELMYPPPYYLGIGNGTQIYVIDPEPCPDSDERKCCVECPPCPAPPVAGPSVFLFPPKPKDTLMISRTPEVTCVVVDVSHEDPEVQFNWYVDGVEVHNAKTKPREEQFNSTFRVVSVLTVVHQDWLNGKEYKCKVSNKGLPAPIEKTISKTKGQPREPQVYTLPPSREEMTKNQVSLTCLVKGFYPSDIAVEWESNGQPENNYKTTPPMLDSDGSFFLYSKLTVDKSRWQQGNVFSCSVMHEALHNHYTQKSLSLSPG
9.58 to 9.88

Kindly review the next binder as well.
Requested read-out: pKd. Entry: D3-72-IgG2 (Fc fusion) MHVAQPAVVLASSRGIASFVCEYESPGKANEIRVTVLRQADSQVTEVCAMTYMKGNELTFLDDPSCTGTFSGNQVNLTIQGLRAMDTGLYICKVELMYPPPYYEGIGNGTQIYVIDPEPCPDSDERKCCVECPPCPAPPVAGPSVFLFPPKPKDTLMISRTPEVTCVVVDVSHEDPEVQFNWYVDGVEVHNAKTKPREEQFNSTFRVVSVLTVVHQDWLNGKEYKCKVSNKGLPAPIEKTISKTKGQPREPQVYTLPPSREEMTKNQVSLTCLVKGFYPSDIAVEWESNGQPENNYKTTPPMLDSDGSFFLYSKLTVDKSRWQQGNVFSCSVMHEALHNHYTQKSLSLSPG
> 9.88
